# Experiment Description: Solubility of dye when preparing ink sheet dye-providing layer coating composition
# Type: physicochemical
# Set-up: key: A: The dye easily dissolves.; B: The dye dissolves.; C: The dye is sparingly soluble, but dissolves
# Experimental Conditions: dye 5.5 parts, polyvinylbutyral resin, methyl ethyl ketone/toluene (1/1) coating composition
# Method: As a support, was used a 6 μm thick polyester film, a back surface of which had been subjected to a heat resistant lubricating processing with a 1 μm thick thermosetting acrylic resin (Lumirror (trade name), a product of Toray). […] Solubility of these dyes contained in these ink sheets were evaluated according to the following three grades; […]
Outcome Measure: Solubility

# Molecule, Outcome Measure, Observed Measurement
records = [
    ("CCN(CCOc1ccc(C2CCCCC2)cc1)c1ccc(C=C(C#N)C#N)cc1 [Dye for Comparison 3, reference compound]", "Solubility", "A"),
    ("Cc1nn(C)c2c(N=Nc3c(C#N)c(C(C)(C)C)nn3C)c(C(C)(C)C)nn12 [Dye (7)]", "Solubility", "A"),
    ("CCSc1nnc(/N=N/c2c(C(C)(C)C)nn3c(C(C)C)nn(CC)c23)s1 [Dye (23)]", "Solubility", "A"),
    ("CCSc1nnc(/N=N/c2c(C(C)(C)C)nn3nc(C(C)C)n(C)c23)s1 [Dye (28)]", "Solubility", "A"),
    ("CCSc1nnc(N=Nc2c(C(C)(C)C)nn3c(C(C)C)n[nH]c23)s1 [Dye for Comparison 1, reference compound]", "Solubility", "B"),
    ("CCc1nn(C)c2c(/N=N/c3c(C#N)c(C(C)(C)C)nn3C)c(C(C)(C)C)nn12 [Dye (9)]", "Solubility", "A"),
]

----------
# Experiment Description: Deposition of dye with lapse of time in the ink sheet, examined by eye
# Type: physicochemical
# Set-up: key: A: No precipitation is observed.; B: Precipitation is slightly observed.; C: Precipitation is apparently observed
# Experimental Conditions: deposition of dye with a lapse of time in the ink sheet

# Compound, Precipitation
records = [
    ("CCSc1nnc(/N=N/c2c(C(C)(C)C)nn3c(C(C)C)nn(CC)c23)s1", "A"),
    ("Cc1nn2nc(C(C)(C)C)c(N=Nc3c(C#N)c(C(C)(C)C)nn3C)c2n1C", "A"),
    ("CCSc1nnc(N=Nc2c(C(C)(C)C)nn3c(C(C)C)n[nH]c23)s1 [Dye for Comparison 1, reference compound]", "B"),
    ("CCc1nn(C)c2c(/N=N/c3c(C#N)c(C(C)(C)C)nn3C)c(C(C)(C)C)nn12", "A"),
]

----------
# Experiment Description: Maximum absorption wavelength of absorption spectrum in ethyl acetate solution
# Format: physicochemical
# Experimental Conditions: 1×10^−6 mol/L, optical path length 10 mm
# Protocol: A mixture of 3.53 g of Intermediate (7a) (0.01 mol), 2.76 g of potassium carbonate (0.02 mol) and dimethylacetamide (15 ml) was stirred at 0° C. To the mixture was gradually dropped 4.23 g (0.03 mol) of methyl iodide. After stirring for 3 hours at room temperature, 50 ml of water was added thereto. After extraction with 50 ml of ethyl acetate, the extracted solution was washed with saturated brine. Then, the extracted solution was concentrated with a rotary evaporator. […]
Below: a set of entries, each annotated with reported Maximum absorption wavelength.
Outcome Measure: Maximum absorption wavelength (nm)

# Structure Smiles, Unit Descriptor, Observed Measurement
rows = [
    ("Cc1nn2nc(C(C)(C)C)c(N=Nc3c(C#N)c(C(C)(C)C)nn3C)c2n1C", "nm", 434),
    ("Cc1nn(C)c2c(N=Nc3c(C#N)c(C(C)(C)C)nn3C)c(C(C)(C)C)nn12", "nm", 442),
    ("CCn1nc(C(C)(C)C)c(C#N)c1/N=N/c1c(C(C)(C)C)nn2c(C)nn(CC)c12", "nm", 441),
    ("CCSc1nnc(/N=N/c2c(C(C)(C)C)nn3c(C(C)C)nn(CC)c23)s1", "nm", 449),
    ("CC(C)c1nn(C)c2c(/N=N/c3c(C#N)c(C(C)(C)C)nn3C)c(C(C)(C)C)nn12", "nm", 443),
    ("CCc1nn(C)c2c(/N=N/c3c(C#N)c(C(C)(C)C)nn3C)c(C(C)(C)C)nn12", "nm", 441),
    ("Cc1nsc(/N=N/c2c(C(C)(C)C)nn3c(C(C)C)nn(C)c23)c1C#N", "nm", 471),
]

----------
# Experiment Description: Deposition of dye with lapse of time in the ink sheet, examined by eye
# Assay type: physicochemical
# Parameters: key: A: No precipitation is observed.; B: Precipitation is slightly observed.; C: Precipitation is apparently observed
# Experimental Conditions: deposition of dye with a lapse of time in the ink sheet

# Molecule, Precipitation
measured = [
    ("CCn1nc(C(C)(C)C)c(C#N)c1/N=N/c1c(C(C)(C)C)nn2c(C)nn(CC)c12 [Dye (8)]", "A"),
    ("Cc1nn(C)c2c(N=Nc3c(C#N)c(C(C)(C)C)nn3C)c(C(C)(C)C)nn12 [Dye (7)]", "A"),
    ("Cc1nn(C)c2c(/N=N/c3nc4ccccc4n3C)c(C(C)(C)C)nn12 [Dye (14)]", "A"),
    ("CC(C)c1nn(C)c2c(/N=N/c3c(C#N)c(C(C)(C)C)nn3C)c(C(C)(C)C)nn12 [Dye (10)]", "A"),
    ("CCSc1nnc(/N=N/c2c(C(C)(C)C)nn3nc(C(C)C)n(C)c23)s1 [Dye (28)]", "A"),
    ("CCN(CCOc1ccc(C2CCCCC2)cc1)c1ccc(C=C(C#N)C#N)cc1 [Dye for Comparison 3, reference compound]", "A"),
]

----------
# Experiment Description: Solubility of dye when preparing ink sheet dye-providing layer coating composition
# Type: physicochemical
# Parameters: key: A: The dye easily dissolves.; B: The dye dissolves.; C: The dye is sparingly soluble, but dissolves
# Experimental Conditions: dye 5.5 parts, polyvinylbutyral resin, methyl ethyl ketone/toluene (1/1) coating composition

# Structure Smiles, Solubility
records = [
    ("Cc1nn2nc(C(C)(C)C)c(N=Nc3c(C#N)c(C(C)(C)C)nn3C)c2n1C", "A"),
    ("CCn1nc(C(C)(C)C)c(C#N)c1/N=N/c1c(C(C)(C)C)nn2c(C)nn(CC)c12", "A"),
    ("CC(C)c1nn(C)c2c(/N=N/c3c(C#N)c(C(C)(C)C)nn3C)c(C(C)(C)C)nn12", "A"),
    ("Cc1nn(C)c2c(/N=N/c3nc4ccccc4n3C)c(C(C)(C)C)nn12", "A"),
]

Recorded values, source patent US8011774B2.
